Origin of values: paper PMC10051811

# ASSAY_METHOD_TEXT: Micafungin concentrations in cerebrospinal fluid of infants with Candida meningitis (HPLC)
# Format: in vivo
# ASSAY_SETUP: human, CSF (ratio to plasma), iv, 8 mg/kg/day, Patient 3, dose 8 mg/kg/day iv; read-out: CSF/plasma ratio after 1 h
*1 amine or outer side, *2 acyl side, *3 side chain or, on linkers, in order; H or OH if unused. Where a SMILES comes first, the peptide text is derived from it. Bridges are numbered along the chain shown (N, C = ends). [ ]: non-standard residue; d: D form. The star is where a group is joined. hTyr(3S-OH,4S-OH,3'-OSO3H) = N[C@H](C(=O)O)[C@H](O)[C@@H](O)c1ccc(O)c(OS(=O)(=O)O)c1; Orn(4R-OH,5R-OH) = O=C([C@H](C[C@@H](O)[C@@H](O)N[*:3])N[*:1])[*:2]; Pro(3S-OH,4S-Me) = C[C@H]1CN[C@H](C(=O)O)[C@H]1O; X1 = CCCCCOc1ccc(-c2cc(-c3ccc(C(=O)*)cc3)no2)cc1; Gln(3R-OH) = NC(=O)C[C@@H](O)[C@H](N)C(=O)O; Hyp = O=C(O)[C@@H]1C[C@@H](O)CN1
RESULT_TYPE: Kp at 1 h
When you answer, write just the number.

Incoming: Dear colleague, I am looking for the recorded Kp at 1 h of the following compound: CCCCCOc1ccc(-c2cc(-c3ccc(C(=O)N[C@H]4C[C@@H](O)[C@@H](O)NC(=O)[C@@H]5[C@@H](O)[C@@H](C)CN5C(=O)[C@H]([C@H](O)CC(N)=O)NC(=O)[C@H]([C@H](O)[C@@H](O)c5ccc(O)c(OS(=O)(=O)O)c5)NC(=O)[C@@H]5C[C@@H](O)CN5C(=O)[C@H]([C@@H](C)O)NC4=O)cc3)no2)cc1 [micafungin] (X1-[Orn(4R-OH,5R-OH)]T[Hyp][hTyr(3S-OH,4S-OH,3'-OSO3H)][Gln(3R-OH)][Pro(3S-OH,4S-Me)]; lactam 1-C)
Outgoing: 0.06

###

# ASSAY_METHOD_TEXT: Micafungin concentrations in cerebrospinal fluid of infants with Candida meningitis (HPLC)
# Assay type: in vivo
# ASSAY_SETUP: human, cerebrospinal fluid, iv, 10 mg/kg/day, Patient 1, dose 10 mg/kg/day iv; HPLC; read-out: CSF values before infusion
*1 amine or outer side, *2 acyl side, *3 side chain or, on linkers, in order; H or OH if unused. Where a SMILES comes first, the peptide text is derived from it. Bridges are numbered along the chain shown (N, C = ends). [ ]: non-standard residue; d: D form. The star is where a group is joined. hTyr(3S-OH,4S-OH,3'-OSO3H) = N[C@H](C(=O)O)[C@H](O)[C@@H](O)c1ccc(O)c(OS(=O)(=O)O)c1; Orn(4R-OH,5R-OH) = O=C([C@H](C[C@@H](O)[C@@H](O)N[*:3])N[*:1])[*:2]; Pro(3S-OH,4S-Me) = C[C@H]1CN[C@H](C(=O)O)[C@H]1O; X1 = CCCCCOc1ccc(-c2cc(-c3ccc(C(=O)*)cc3)no2)cc1; Gln(3R-OH) = NC(=O)C[C@@H](O)[C@H](N)C(=O)O; Hyp = O=C(O)[C@@H]1C[C@@H](O)CN1
RESULT_TYPE: level at -1 h (ng/mL)
Answer with a number only, understood to be in ng/mL.

Incoming: Need level at -1 h, item CCCCCOc1ccc(-c2cc(-c3ccc(C(=O)N[C@H]4C[C@@H](O)[C@@H](O)NC(=O)[C@@H]5[C@@H](O)[C@@H](C)CN5C(=O)[C@H]([C@H](O)CC(N)=O)NC(=O)[C@H]([C@H](O)[C@@H](O)c5ccc(O)c(OS(=O)(=O)O)c5)NC(=O)[C@@H]5C[C@@H](O)CN5C(=O)[C@H]([C@@H](C)O)NC4=O)cc3)no2)cc1 [micafungin] (X1-[Orn(4R-OH,5R-OH)]T[Hyp][hTyr(3S-OH,4S-OH,3'-OSO3H)][Gln(3R-OH)][Pro(3S-OH,4S-Me)]; lactam 1-C)
Outgoing: 1230
